These data points were gathered from patent US20240424111A1.

system.tested: PTPN2 (Mus musculus)
Construct: HiBiT; host or cells: B16F10.4
protocol.text: HiBiT PTPN2 degradation in B16F10.4 cells, 24 hours
Assay type: cell-based
Protocol: PTPN2 degradation was determined based on quantification of luminescent signal using Nano-Glo® HiBiT Lytic Assay kit. Test compounds were added to the 384-well plate from a top concentration of 10 μM with 11 points, half log titration in duplicates. 293T. 109 cells were added into 384-well plates at a cell density of 5000 cells per well. The plates were kept at 37° C. with 5% CO2 for 24 hours. […] Luminescence was acquired on EnVision™ Multilabel Reader (PerkinElmer, Santa Clara, CA, USA).
metric: DC50

Consider the following illustrative entries.
• Cn1c(=O)n(C2CCC(=O)NC2=O)c2ccc(C3CCN(CC4CC4C(=O)N4CC[C@H](c5ccc6cc(O)c(N7CC(=O)NS7(=O)=O)c(F)c6c5)C4)CC3)cc21 (stereo partly drawn) [Degrader 17] = 150 to 500 nM
• Cn1c(=O)n(C2CCC(=O)NC2=O)c2ccc(C3CCN(C/C=C/c4ccc5c(F)c(N6CC(=O)NS6(=O)=O)c(O)cc5c4)CC3)cc21 (stereo not drawn) [Degrader 78] = ≥ 500 nM
• C[C@H]1CN(c2ccc3c(c2)n(C)c(=O)n3C2CCC(=O)NC2=O)CC[C@H]1CC(=O)Nc1ccc2c(F)c(N3CC(=O)NS3(=O)=O)c(O)cc2c1 (stereo partly drawn) [Degrader 126] = 50 to 150 nM

Exercise: Entry Cn1c(=O)n(C2CCC(=O)NC2=O)c2ccc(-c3ccc(CC(=O)Nc4ccc5c(F)c(N6CC(=O)NS6(=O)=O)c(O)cc5c4)cc3)c(F)c21 (stereo not drawn) [Degrader 40] needs its DC50 filled in; supply it.
Solution: 150 to 500 nM

Exercise: Entry Cn1c(=O)n(C2CCC(=O)NC2=O)c2cc(F)c(-c3ccc(CC(=O)Nc4ccc5c(F)c(N6CC(=O)NS6(=O)=O)c(O)cc5c4)cc3)cc21 (stereo not drawn) [Degrader 44] needs its DC50 filled in; supply it.
Solution: 150 to 500 nM

Exercise: Entry Cn1c(=O)n(C2CCC(=O)NC2=O)c2ccc(-c3ccn(CC(=O)Nc4ccc5c(F)c(N6CC(=O)NS6(=O)=O)c(O)cc5c4)c(=O)c3)cc21 (stereo not drawn) [Degrader 32] needs its DC50 filled in; supply it.
Solution: 50 to 150 nM

* * *

system.tested: PTPN2 (Mus musculus, UniProt Q06180)
Construct: HiBiT; host or cells: B16F10.4
Sequence (Q06180 whole entry): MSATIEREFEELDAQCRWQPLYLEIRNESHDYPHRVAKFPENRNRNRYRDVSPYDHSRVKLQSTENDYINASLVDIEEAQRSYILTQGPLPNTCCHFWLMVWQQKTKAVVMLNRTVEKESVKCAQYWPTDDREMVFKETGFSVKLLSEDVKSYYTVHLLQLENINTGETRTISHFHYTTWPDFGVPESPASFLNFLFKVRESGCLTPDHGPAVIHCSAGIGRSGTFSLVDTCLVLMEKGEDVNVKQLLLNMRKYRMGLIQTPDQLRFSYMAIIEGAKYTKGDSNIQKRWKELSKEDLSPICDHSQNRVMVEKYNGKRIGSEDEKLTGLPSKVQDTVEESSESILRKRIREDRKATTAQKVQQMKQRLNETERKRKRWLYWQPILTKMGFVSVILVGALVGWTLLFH
protocol.text: HiBiT PTPN2 degradation in B16F10.4 cells, 24 hours
Assay type: cell-based
metric: DC50

Consider the following illustrative entries.
- Cn1c(=O)n(C2CCC(=O)NC2=O)c2ccc([C@@H]3CCN(CC(=O)Nc4ccc5c(F)c(N6CC(=O)NS6(=O)=O)c(O)cc5c4)C[C@H]3O)cc21 (some centres unmarked) [Degrader 111]: 50 to 150 nM
- Cn1c(=O)n([C@@H]2CCC(=O)NC2=O)c2ccc(-c3ccc(CC(=O)Nc4ccc5c(F)c(N6CC(=O)NS6(=O)=O)c(O)cc5c4)cc3)cc21 [Degrader 26]: < 50 nM
- C[C@H](C(=O)Nc1ccc2c(F)c(N3CC(=O)NS3(=O)=O)c(O)cc2c1)N1CCC(c2ccc3c(c2)n(C)c(=O)n3C2CCC(=O)NC2=O)CC1 (some centres unmarked) [Degrader 103]: ≥ 500 nM

Exercise: Entry Cn1c(=O)n(C2CCC(=O)NC2=O)c2ccc([C@@H]3CN(CC(=O)Nc4ccc5c(F)c(N6CC(=O)NS6(=O)=O)c(O)cc5c4)CC[C@H]3F)cc21 (some centres unmarked) [Degrader 141] needs its DC50 filled in; supply it.
Solution: 50 to 150 nM

Exercise: Entry Cn1c(=O)n(C2CCC(=O)NC2=O)c2ccc(-c3ccc(CC(=O)Nc4ccc5c(F)c(N6CC(=O)NS6(=O)=O)c(O)cc5c4)cc3F)c(F)c21 (centres unmarked) [Degrader 56] needs its DC50 filled in; supply it.
Solution: 50 to 150 nM

Exercise: Entry Cn1c(=O)n([C@@H]2CCC(=O)NC2=O)c2ccc(N3CCC(CC(=O)Nc4ccc5c(F)c(N6CC(=O)NS6(=O)=O)c(O)cc5c4)CC3)cc21 [Degrader 21] needs its DC50 filled in; supply it.
Solution: 50 to 150 nM

Exercise: Entry COC1(CC(=O)Nc2ccc3c(F)c(N4CC(=O)NS4(=O)=O)c(O)cc3c2)CCN(c2ccc3c(c2)n(C)c(=O)n3C2CCC(=O)NC2=O)CC1 (centres unmarked) [Degrader 99] needs its DC50 filled in; supply it.
Solution: 50 to 150 nM

Exercise: Entry O=C1CCC(N2C(=O)c3cccc4c(N5CCC(CC(=O)Nc6ccc7c(F)c(N8CC(=O)NS8(=O)=O)c(O)cc7c6)CC5)ccc2c34)C(=O)N1 (centres unmarked) [Degrader 143] needs its DC50 filled in; supply it.
Solution: < 50 nM

Exercise: Entry C[C@@H]1CN(CC(=O)Nc2ccc3c(F)c(N4CC(=O)NS4(=O)=O)c(O)cc3c2)CCN1c1cc2c(cc1F)n(C1CCC(=O)NC1=O)c(=O)n2C (some centres unmarked) [Degrader 150] needs its DC50 filled in; supply it.
Solution: 150 to 500 nM

Exercise: Entry Cn1c(=O)n(C2CCC(=O)NC2=O)c2cccc(N3CCC(CCNC(=O)Nc4ccc5c(F)c(N6CC(=O)NS6(=O)=O)c(O)cc5c4)CC3)c21 (centres unmarked) [Degrader 62] needs its DC50 filled in; supply it.
Solution: 150 to 500 nM

Exercise: Entry Cn1c(=O)n(C2CCC(=O)NC2=O)c2ccc(C3CCN(CC(=O)N4CCC(Oc5ccc6cc(O)c(N7CC(=O)NS7(=O)=O)c(F)c6c5)CC4)CC3(F)F)cc21 (centres unmarked) [Degrader 10] needs its DC50 filled in; supply it.
Solution: 150 to 500 nM

* * *

system.tested: PTPN2 (Homo sapiens)
Construct: expressed in transfected cells; host or cells: 293T.109 (HiBiT-PTPN2), derived from 293T WT (ATCC)
Sequence (P17706 whole entry): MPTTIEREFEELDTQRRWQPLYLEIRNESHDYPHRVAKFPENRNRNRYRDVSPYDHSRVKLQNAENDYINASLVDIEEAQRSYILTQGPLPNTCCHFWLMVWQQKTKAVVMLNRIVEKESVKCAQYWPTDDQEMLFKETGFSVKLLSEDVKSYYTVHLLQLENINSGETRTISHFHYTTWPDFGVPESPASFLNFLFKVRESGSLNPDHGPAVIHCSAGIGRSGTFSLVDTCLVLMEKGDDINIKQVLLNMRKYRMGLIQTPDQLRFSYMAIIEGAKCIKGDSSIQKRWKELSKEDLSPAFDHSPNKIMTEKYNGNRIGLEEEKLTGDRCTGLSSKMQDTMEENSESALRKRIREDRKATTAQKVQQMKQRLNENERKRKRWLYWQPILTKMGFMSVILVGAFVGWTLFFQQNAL
protocol.text: HiBiT PTPN2 degradation in 293T.109 (HiBiT-PTPN2) cells, 24 hours
Assay type: cell-based
assay.setup: 293T.109 cells
The compounds listed here are annotated with their DC50.

Consider the following illustrative entries.
* Cc1cc(-c2ccc3c(c2)n(C)c(=O)n3C2CCC(=O)NC2=O)ccc1CC(=O)Nc1ccc2c(F)c(N3CC(=O)NS3(=O)=O)c(O)cc2c1 (centres unmarked) | 50 to 150 nM
* Cn1c(=O)n(C2CCC(=O)NC2=O)c2ccc(C3CC4CCC(C3)N4CC(=O)Nc3ccc4c(F)c(N5CC(=O)NS5(=O)=O)c(O)cc4c3)cc21 (centres unmarked) [Degrader 51] | 50 to 150 nM
* Cn1c(=O)n(C2CCC(=O)NC2=O)c2ccc(-n3ccc(CC(=O)Nc4ccc5c(F)c(N6CC(=O)NS6(=O)=O)c(O)cc5c4)n3)cc21 (centres unmarked) | 150 to 500 nM
* CCn1c(=O)n(C2CCC(=O)NC2=O)c2ccc(-c3ccc(CC(=O)Nc4ccc5c(F)c(N6CC(=O)NS6(=O)=O)c(O)cc5c4)cc3F)cc21 (centres unmarked) | 50 to 150 nM
* Cn1c(=O)n(C2CCC(=O)NC2=O)c2ccc(-c3ccc(CC(=O)Nc4ccc5c(F)c(N6CC(=O)NS6(=O)=O)c(O)cc5c4)cc3)cc21 (centres unmarked) | < 50 nM

Exercise: Entry C[C@@H]1CN(CC(=O)Nc2ccc3c(F)c(N4CC(=O)NS4(=O)=O)c(O)cc3c2)CCN1c1ccc2c(c1)n(C)c(=O)n2C1CCC(=O)NC1=O (some centres unmarked) needs its DC50 filled in; supply it.
Solution: 50 to 150 nM

Exercise: Entry Cn1nc(C2CCC(=O)NC2=O)c2ccc(Oc3ccc(CC(=O)Nc4ccc5c(F)c(N6CC(=O)NS6(=O)=O)c(O)cc5c4)cc3)cc21 (centres unmarked) needs its DC50 filled in; supply it.
Solution: 50 to 150 nM

Exercise: Entry O=C1CCC(N2C(=O)c3cccc4c(-c5ccc(CC(=O)Nc6ccc7c(F)c(N8CC(=O)NS8(=O)=O)c(O)cc7c6)cc5)ccc2c34)C(=O)N1 (centres unmarked) needs its DC50 filled in; supply it.
Solution: 150 to 500 nM

Exercise: Entry Cn1c(=O)n(C2CCC(=O)NC2=O)c2ccc(N3CC4(CCN(CC(=O)Nc5ccc6c(F)c(N7CC(=O)NS7(=O)=O)c(O)cc6c5)CC4)C3)cc21 (centres unmarked) needs its DC50 filled in; supply it.
Solution: 150 to 500 nM

Exercise: Entry Cc1nn(CC(=O)Nc2ccc3c(F)c(N4CC(=O)NS4(=O)=O)c(O)cc3c2)c(C)c1-c1ccc2c(C3CCC(=O)NC3=O)nn(C)c2c1 (centres unmarked) needs its DC50 filled in; supply it.
Solution: < 50 nM

Exercise: Entry Cc1nn(C2CCC(=O)NC2=O)c2ccc(N3CCC(CC(=O)Nc4ccc5c(F)c(N6CC(=O)NS6(=O)=O)c(O)cc5c4)CC3)cc12 (centres unmarked) needs its DC50 filled in; supply it.
Solution: ≥ 500 nM

Exercise: Entry Cn1nc(C2CCC(=O)NC2=O)c2ccc(C3CCN(C4CC(C(=O)Nc5ccc6c(F)c(N7CC(=O)NS7(=O)=O)c(O)cc6c5)C4)CC3)cc21 (centres unmarked) needs its DC50 filled in; supply it.
Solution: < 50 nM

Exercise: Entry Cn1c(=O)n(C2CCC(=O)NC2=O)c2cccc(N3CCC[C@@H](OCC(=O)Nc4ccc5c(F)c(N6CC(=O)NS6(=O)=O)c(O)cc5c4)C3)c21 (some centres unmarked) needs its DC50 filled in; supply it.
Solution: ≥ 500 nM

Exercise: Entry CCn1c(=O)n(C2CCC(=O)NC2=O)c2ccc(C3CCN([C@@H](CO)C(=O)Nc4ccc5c(F)c(N6CC(=O)NS6(=O)=O)c(O)cc5c4)CC3)cc21 (some centres unmarked) needs its DC50 filled in; supply it.
Solution: < 50 nM

Exercise: Entry Cn1c(=O)n(C2CCC(=O)NC2=O)c2ccc(-c3ccc([C@@H](CO)C(=O)Nc4ccc5c(F)c(N6CC(=O)NS6(=O)=O)c(O)cc5c4)cc3)cc21 (some centres unmarked) needs its DC50 filled in; supply it.
Solution: < 50 nM

Exercise: Entry Cn1c(=O)n(C2CCC(=O)NC2=O)c2cc(F)c(N3CCC(CCNC(=O)Nc4ccc5c(F)c(N6CC(=O)NS6(=O)=O)c(O)cc5c4)CC3)cc21 (centres unmarked) needs its DC50 filled in; supply it.
Solution: < 50 nM

Exercise: Entry Cn1c(=O)n(C2CCC(=O)NC2=O)c2cc(F)c(-c3ccc(CC(=O)Nc4ccc5c(F)c(N6CC(=O)NS6(=O)=O)c(O)cc5c4)cc3)cc21 (centres unmarked) needs its DC50 filled in; supply it.
Solution: 150 to 500 nM

Exercise: Entry Cn1c(=O)n(C2CCC(=O)NC2=O)c2ccc(N3CCC(CC(=O)Nc4ccc5c(F)c(N6CC(=O)NS6(=O)=O)c(O)cc5c4)CC3)cc21 (centres unmarked) [Degrader 19] needs its DC50 filled in; supply it.
Solution: < 50 nM

Exercise: Entry Cn1c(=O)n(C2CCC(=O)NC2=O)c2ccc(C3CCN(CC(=O)N4CCC(Oc5ccc6cc(O)c(N7CC(=O)NS7(=O)=O)c(F)c6c5)CC4)CC3(F)F)cc21 (centres unmarked) needs its DC50 filled in; supply it.
Solution: 50 to 150 nM

Exercise: Entry Cn1c(=O)n(C2CCC(=O)NC2=O)c2ccc(C3CCN(C4CC(C(=O)Nc5ccc6cc(N7CC(=O)NS7(=O)=O)ccc6c5)C4)CC3(F)F)cc21 (centres unmarked) needs its DC50 filled in; supply it.
Solution: 50 to 150 nM

Exercise: Entry Cn1c(=O)n(C2CCC(=O)NC2=O)c2cccc(N3CCC(CCNC(=O)Nc4ccc5c(F)c(N6CC(=O)NS6(=O)=O)c(O)cc5c4)CC3)c21 (centres unmarked) needs its DC50 filled in; supply it.
Solution: 150 to 500 nM

Exercise: Entry C[C@H]1CN(CC(=O)Nc2ccc3c(F)c(N4CC(=O)NS4(=O)=O)c(O)cc3c2)CCN1c1ccc2c(c1F)n(C)c(=O)n2C1CCC(=O)NC1=O (some centres unmarked) needs its DC50 filled in; supply it.
Solution: 150 to 500 nM

Exercise: Entry Cn1c(=O)n(C2CCC(=O)NC2=O)c2ccc(-c3ccc(CC(=O)Nc4ccc5c(F)c(N6CC(=O)NS6(=O)=O)c(O)cc5c4)cc3)nc21 (centres unmarked) needs its DC50 filled in; supply it.
Solution: 150 to 500 nM
